Source of measurements: ChEMBL document CHEMBL1201862

Listed here are compounds together with their documented GI50.
- Test system: SR
- Protocol Summary: NCI tumour cell line growth inhibition, 48 h
The source made the active and inactive calls. No stated cut-off is given here; in the data, active = GI50 up to about 1.1 µM and inactive = higher.

Sample records with GI50:
Compound	Result
NC(=O)Cc1nc2c(N)ncnc2n1C1OC(CO)C(O)C1O (stereo unspecified)	> 100 µM (inactive)
C/C(=C\CNc1ncnc2[nH]c(Cl)nc12)CO	> 100 µM (inactive)
CCOP(=O)(OCC)C1(O)CC(n2cc(C)c(=O)[nH]c2=O)OC1CO (stereo unspecified)	> 100 µM (inactive)
COc1cc(C)c2c(c1C=O)Oc1c(c(C)c(O)c3c1C(O)OC3=O)OC2=O (stereo unspecified)	16 µM (inactive)
CC1(C)CC2(C)CC1CC2O (stereo unspecified)	> 100 µM (inactive)

Record CO[C@@]12[C@H](COC(N)=O)C3=C(C(=O)C(C)=C(N)C3=O)N1C[C@@H]1N[C@@H]12 ; system SR; GI50 = 0.122 µM (active)

Record C[N+]1(Cc2ccc(Cl)c(Cl)c2)CCCC1C1CCCN(Cc2ccc(Cl)c(Cl)c2)C1 (stereo unspecified) ; system SR; GI50 = > 100 µM (inactive)

Record N#CC(Nc1cccc(C(F)(F)F)c1)c1ccccc1C(F)(F)F (stereo unspecified) ; system SR; GI50 = 4.82 µM (inactive)

Record O=C(O)CSc1ccc2nc3ccccc3c(O)c2c1 ; system SR; GI50 = > 100 µM (inactive)
